Data provenance: paper PMC9927260

system: IBV H120 whole virus (target protein not identified) (Infectious bronchitis virus, live vaccine strain H120); assay: direct ELAA
pKd: −log10 of the molar value.
observed.property: pKd

>  <query.sequence>
CACGTCTCTCTATTCGCTCCCTTCGCTAATTGTTCTCTCC [Apt_IBV02]

>  <measured.result>
7.24

$$$$
>  <query.sequence>
CCCCAATCACAGTTAATCCTCGTTCCTATATCTCCCACAC [Apt_IBV01]

>  <measured.result>
7.00

$$$$
>  <query.sequence>
GACTTCCCTCTTTGTGTGTCATTCGGTGTTCTCGCTTTTG [Apt_IBV05]

>  <measured.result>
7.23

$$$$
>  <query.sequence>
CCAGTATCATCCCTATCGTAGTCCTCAACAACCCCCTACA [Apt_IBV04]

>  <measured.result>
7.00

$$$$
>  <query.sequence>
CAGACTTTGTTCAGCTCCTCGACTCTTCATTCCCTCCCTT [Apt_IBV03]

>  <measured.result>
6.96

$$$$
